ASSAY_NOTES: in vitro
ENDPOINT_LABEL: viability at 48 h (%)
Give bare numbers, in %.

So what's the measured viability at 48 h for this one? CC(C)(C)NC(=O)[C@H]1CC[C@H]2[C@@H]3CC[C@H]4NC(=O)C=C[C@]4(C)[C@H]3CC[C@]12C [Finasteride, finasteride]
101
